Quick note: these are pIC50 numbers for system: Acetylcholinesterase (Electrophorus electricus)
Sequence (O42275 whole entry): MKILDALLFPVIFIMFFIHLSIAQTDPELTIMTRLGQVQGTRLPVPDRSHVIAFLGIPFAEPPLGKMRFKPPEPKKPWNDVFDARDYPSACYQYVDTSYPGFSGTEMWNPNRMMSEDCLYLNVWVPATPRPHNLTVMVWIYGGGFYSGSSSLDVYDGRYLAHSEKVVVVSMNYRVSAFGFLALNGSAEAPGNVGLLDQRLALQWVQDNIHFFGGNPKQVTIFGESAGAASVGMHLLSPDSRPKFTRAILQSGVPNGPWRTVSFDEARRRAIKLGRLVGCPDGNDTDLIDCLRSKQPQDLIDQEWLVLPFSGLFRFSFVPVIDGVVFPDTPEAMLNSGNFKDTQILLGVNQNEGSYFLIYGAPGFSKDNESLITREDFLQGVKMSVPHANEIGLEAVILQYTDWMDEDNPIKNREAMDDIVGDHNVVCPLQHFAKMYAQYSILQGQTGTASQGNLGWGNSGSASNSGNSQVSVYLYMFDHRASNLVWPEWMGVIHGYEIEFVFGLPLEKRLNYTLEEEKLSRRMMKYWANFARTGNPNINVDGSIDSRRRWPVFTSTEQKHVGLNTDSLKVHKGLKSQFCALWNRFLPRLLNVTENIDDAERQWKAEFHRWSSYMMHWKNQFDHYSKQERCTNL
Answers are plain numbers, as −log10 of the molar value.

// worked examples, pIC50 included
[[record]]
chem_smiles = "c1ccc(CC2CCN(CCNCc3cccnc3)CC2)cc1"
target_or_system = "Acetylcholinesterase (Electrophorus electricus)"
reported = 7.48

[[record]]
chem_smiles = "COc1cc(CNCCCN2CCN(Cc3ccccc3)CC2)cc(OC)c1OC"
target_or_system = "Acetylcholinesterase (Electrophorus electricus)"
reported = 7.09

[[record]]
chem_smiles = "COc1cc(CNCCCN2CCN(Cc3ccccc3)CC2)ccc1O"
target_or_system = "Acetylcholinesterase (Electrophorus electricus)"
reported = 7.87

[[record]]
chem_smiles = "COc1cc(CNCCCCN2CCN(Cc3ccccc3)CC2)cc(OC)c1OC"
target_or_system = "Acetylcholinesterase (Electrophorus electricus)"
reported = 6.86

[[record]]
chem_smiles = "COc1cc(CNCCCN2CCC(Cc3ccccc3)CC2)ccc1O"
target_or_system = "Acetylcholinesterase (Electrophorus electricus)"
reported = 8.17

[[record]]
chem_smiles = "COc1cc(CNCCN2CCC(Cc3ccccc3)CC2)cc(OC)c1OC"
target_or_system = "Acetylcholinesterase (Electrophorus electricus)"
reported = 7.45

[[record]]
chem_smiles = "COc1ccc(CNCCCN2CCN(Cc3ccccc3)CC2)cc1OC"
target_or_system = "Acetylcholinesterase (Electrophorus electricus)"
reported = 6.95

[[record]]
chem_smiles = "COc1cc(CNCCCCN2CCC(Cc3ccccc3)CC2)cc(OC)c1OC"
target_or_system = "Acetylcholinesterase (Electrophorus electricus)"
reported = 7.89

[[record]]
chem_smiles = "c1ccc(CC2CCN(CCCNCc3cccnc3)CC2)cc1"
target_or_system = "Acetylcholinesterase (Electrophorus electricus)"
reported = 8.67

[[record]]
chem_smiles = "COc1cc(CNCCN2CCN(Cc3ccccc3)CC2)cc(OC)c1OC"
target_or_system = "Acetylcholinesterase (Electrophorus electricus)"
reported = 7.02


Here's the next entry for you.
Problem: // lookup pIC50 | system=Acetylcholinesterase (Electrophorus electricus) | key= "COc1cc(CNCCN2CCC(Cc3ccccc3)CC2)ccc1O"
Solution: 7.42
